Molecular target: T1, CD123 (Homo sapiens (Human), UniProt P26951 19-305, limits assumed)
T1 construct: The CD123 construct used in the ELISA is not described; also called CD123-Signal
T1 sequence: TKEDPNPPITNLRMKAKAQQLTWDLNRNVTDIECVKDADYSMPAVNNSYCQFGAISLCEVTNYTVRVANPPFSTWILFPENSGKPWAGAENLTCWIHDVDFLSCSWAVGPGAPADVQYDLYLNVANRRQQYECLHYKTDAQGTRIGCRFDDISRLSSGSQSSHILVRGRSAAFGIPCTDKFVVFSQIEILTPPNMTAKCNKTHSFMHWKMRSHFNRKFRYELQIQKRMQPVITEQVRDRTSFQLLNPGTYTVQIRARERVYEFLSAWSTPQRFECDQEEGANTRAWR
Experiment: ELISA
Parameters: unit not given here
Quantity Kind: ELISA_avg
Please give the numeric answer without any surrounding text.

Answered cases to consult:
>  <Binder>
D domain of SEQ ID NO: 452 (designed binder) MGSWTEFNLRLDAIYGRLSALGGSEAELAAFEKEIAAFESELQAYKGKGNPEVEFLRAAAANIRVELQAYRHN

>  <ELISA_avg>
19.3

$$$$
>  <Binder>
D domain of SEQ ID NO: 560 (designed binder) MGSWVVFKQDLADINHQLEALGGSEAELAWFEWEIADFEWELQHYKGKGNPEVEALRKEAAAIRDELQAYRHN

>  <ELISA_avg>
3.6

$$$$

Ask | Give the measured ELISA_avg of D domain of SEQ ID NO: 436 (designed binder) MGSWSEFNMRLDAIYERLTALGGSEAELAAFEKEIAAFESELQAYKGKGNPEVEWLRHSAALIRLELQAYRHN .
Reply | 11.4
